- Tested on: PC3
- protocol notes: Cytoxicity / crystal violet staining, PC3
- Type: cell-based
- measurement parameters: average of triplicates, % of apoptotic cells vs DMSO controls, N.A. = not active at 10 μM
The label is Satisfied for Cytoxicity (% cell killing at 10 μM) PC3 below 50% and Not satisfied for Cytoxicity (% cell killing at 10 μM) PC3 equal to or exceeding 50%.

Reference set (5 entries):
O=C1/C(=C/c2ccc3[nH]ccc3c2)CCc2ccc(F)cc21    Satisfied
Cn1ccc2cc(/C=C3\CCc4ccccc4C3=O)ccc21    Not satisfied
CCn1ccc2cc(/C=C3\CCc4ccc(F)cc4C3=O)ccc21    Satisfied
COc1cc2c(cc1OC)C(=O)/C(=C/c1ccc3ccn(C)c3c1)CC2    Not satisfied
COc1cc2c(cc1OC)C(=O)/C(=C/c1ccc3c(ccn3C)c1)CC2    Satisfied

Say whether its Cytoxicity (% cell killing at 10 μM) PC3 is strictly beneath 50%. Entry: O=C1/C(=C/c2ccc3[nH]ccc3c2)CCc2ccc(Br)cc21 Satisfied

Say whether its Cytoxicity (% cell killing at 10 μM) PC3 is strictly beneath 50%. Entry: Cn1ccc2ccc(/C=C3\CCc4ccccc4C3=O)cc21 Not satisfied

Say whether its Cytoxicity (% cell killing at 10 μM) PC3 is strictly beneath 50%. Entry: O=C1/C(=C/c2ccc3[nH]ccc3c2)CCc2ccccc21 Not satisfied

Say whether its Cytoxicity (% cell killing at 10 μM) PC3 is strictly beneath 50%. Entry: COc1ccc2c(c1)C(=O)/C(=C/c1ccc3ccn(C)c3c1)CC2 Satisfied

Say whether its Cytoxicity (% cell killing at 10 μM) PC3 is strictly beneath 50%. Entry: CC(=O)n1ccc2cc(/C=C3\CCc4ccc(F)cc4C3=O)ccc21 Satisfied
